# target-under-test: Zaire ebolavirus disulfide-linked glycoprotein heterodimer (GP1-GP2) (Zaire ebolavirus, UniProt Q05320)
# Sequence (Q05320 33-501 limits assumed): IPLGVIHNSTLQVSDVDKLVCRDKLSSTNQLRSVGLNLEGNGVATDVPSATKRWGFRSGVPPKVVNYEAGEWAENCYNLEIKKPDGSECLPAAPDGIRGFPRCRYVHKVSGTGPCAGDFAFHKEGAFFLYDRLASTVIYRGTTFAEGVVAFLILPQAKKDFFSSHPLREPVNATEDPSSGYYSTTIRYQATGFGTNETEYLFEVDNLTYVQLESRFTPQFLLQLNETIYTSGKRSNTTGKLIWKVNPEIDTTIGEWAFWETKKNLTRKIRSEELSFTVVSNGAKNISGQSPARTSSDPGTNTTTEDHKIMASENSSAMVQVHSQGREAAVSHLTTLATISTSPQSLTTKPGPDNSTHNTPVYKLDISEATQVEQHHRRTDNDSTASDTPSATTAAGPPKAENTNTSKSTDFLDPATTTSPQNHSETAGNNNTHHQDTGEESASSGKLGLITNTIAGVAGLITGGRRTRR
# Sequence (Q05320 502-676 limits assumed): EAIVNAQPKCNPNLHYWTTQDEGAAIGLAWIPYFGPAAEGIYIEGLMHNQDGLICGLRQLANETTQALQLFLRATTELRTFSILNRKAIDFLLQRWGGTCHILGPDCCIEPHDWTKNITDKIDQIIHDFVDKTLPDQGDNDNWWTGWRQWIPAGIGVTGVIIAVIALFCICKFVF
# run-description: biochemical

{"compound": "COc1ccc2nc3cc(Cl)ccc3c(Nc3cc(CN4CCCC4)c(O)c(CN4CCCC4)c3)c2n1 [Pyronaridine]", "Kd / µM": 7.34}
{"compound": "CCN(CC)CCCC(C)Nc1c2ccc(Cl)cc2nc2ccc(OC)cc12 (stereo not drawn) [Quinacrine]", "Kd / µM": 7.55}
{"compound": "CCN(CC)CCOc1ccc2c(c1)C(=O)c1cc(OCCN(CC)CC)ccc1-2 [Tilorone]", "Kd / µM": 0.73}
